Test system: S. aureus
Assay: Antibacterial activity, inhibition zone approach
Type: cell-based, Staphylococcus aureus
Conditions: authors' grading of Table 2 values, key not given
Observable: antimicrobial activity with S. aureus, in words

INSERT INTO assay_data (molecule, value_observed) VALUES
  ('CCOC(=O)CSC(=S)N1N=C(c2ccc(O)cc2)CC1c1cccs1 (stereo not shown) [17a]', 'weak'),
  ('Oc1ccc(-c2cc(-c3cccs3)nc(/N=C/c3ccccc3O)n2)cc1 [13a]', 'very strong'),
  ('NC(=S)n1nc(-c2ccc(Cl)c(Cl)c2)cc1-c1cccs1 [10b]', 'very strong'),
  ('Oc1ccc(C2=NNC(c3cccs3)C2)cc1 (stereo not shown)', 'very strong'),
  ('CCOC(=O)CN1N=C(c2ccc(O)cc2)CC1c1cccs1 (stereo not shown) [15a]', 'moderate'),
  ('O=C(O)CSC(=S)N1N=C(c2ccc(O)cc2)CC1c1cccs1 (stereo not shown) [19a]', 'moderate'),
  ('N#Cc1c(-c2cccs2)cc(-c2ccc(O)cc2)nc1N', 'moderate'),
  ('O=C(CCl)SC(=S)N1N=C(c2ccc(O)cc2)CC1c1cccs1 (stereo not shown) [20a]', 'weak'),
  ('NC(=S)n1nc(-c2ccc(O)cc2)cc1-c1cccs1 [10a]', 'moderate'),
  ('NS(=O)(=O)c1ccc(NC(=O)CN2N=C(c3ccc(O)cc3)CC2c2cccs2)cc1 (stereo not shown) [16a]', 'moderate');
